system: HCT-15 colon; assay: NCI tumour cell line growth inhibition, 48 h
Reported property: TGI

Use these answered entries as a reference point.
CCCCOc1ccc(NC(N)=Nc2ccc(Cl)cc2)cc1 :: 23.1 µM
Nc1c(C(=O)Nc2cccc([N+](=O)[O-])c2)sc2nc3c(cc12)C(O)CCC3 (centres undefined) :: > 100 µM
COP(=O)(O)/C=C/C(NC(=O)C(Cl)(Cl)Cl)c1ccccc1 (centres undefined) :: > 100 µM
CCC12C[N+]3([O-])CCc4c([nH]c5ccccc45)C(C(=O)OC)(c4cc5c(cc4OC)N(C)C4C(O)(C(=O)OC)C(OC(C)=O)C6(CC)C=CCN7CCC54C76)CC(C3)C1O2 (centres undefined) :: 24.8 µM
COc1cc(/C=C/C(=O)O)ccc1C(=O)O/C=C/c1ccccc1 :: > 100 µM

// query TGI value for entry CCN1C(=O)N(CC)C2C1NN=c1s/c(=C\c3cccnc3)c(=O)n12 (centres undefined)
> 100 µM

// query TGI value for entry CCCc1[nH]nc(CCC(=O)N(Cc2ccccc2)Cc2ccccc2)c1CC
> 100 µM

// query TGI value for entry Cc1cc(N(CCC#N)S(=O)(=O)c2ccccc2)ccc1/C=C1N=C(/C=C/c2ccccc2)OC\1=O
> 100 µM

// query TGI value for entry COc1c2c(c3c(c1CCC(=O)O)OC(C)(C)C=C3)OC(C)(C)C=C2
> 100 µM
